I'd appreciate it if you could supply inhibition values for the items below.
- System under test: Serine/threonine-protein kinase Sgk1 (Homo sapiens);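 further: mean percent inhibition of SGK1, from the GSK PKIS screening panel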
- Test conditions: at 1 µM
The reply should be a number in %, with the unit left off.

Lookup: // Input: COc1cc(N2CCN(C(C)C)CC2)ccc1Nc1nc(Nc2cccc3ncccc23)c2cc[nH]c2n1 . Output its inhibition only.
Found: -0.91

Lookup: // Input: Cc1cc(O)cc(C)c1/C=C/c1cncc(C(N)=O)c1 . Output its inhibition only.
Found: 2.14

Lookup: // Input: COc1ccc2ncn(-c3cc(O[C@H](C)c4ccccc4C(F)(F)F)c(C(N)=O)s3)c2c1 . Output its inhibition only.
Found: 0.95

Lookup: // Input: COc1cccc(-n2ncc3c(N/N=C/c4ccc(C(=O)NCCN(C)C)cc4)ncnc32)c1 . Output its inhibition only.
Found: 47.9

Lookup: // Input: COc1ccccc1-c1cc(/C=C2\C(=O)Nc3ncc(Br)cc32)cc(Br)c1O . Output its inhibition only.
Found: 5.53

Lookup: // Input: COc1cc2c(cc1Nc1nc(Nc3cccc(F)c3C(N)=O)c3cc[nH]c3n1)N(C(=O)CN1CCN(C(C)C)CC1)CC2 . Output its inhibition only.
Found: 1.29

Lookup: // Input: O=C(O[C@H]1CN[C@H](C#Cc2cc3ncnc(Nc4ccc5c(cnn5Cc5ccccc5)c4)c3s2)C1)N1CCOCC1 . Output its inhibition only.
Found: -1.15

Lookup: // Input: O=C(O[C@H]1CN[C@H](C#Cc2cc3ncnc(Nc4ccc5c(ccn5Cc5cc(F)ccc5F)c4)c3s2)C1)N1CCOCC1 . Output its inhibition only.
Found: 3.13

Lookup: // Input: O=C(Nc1n[nH]c2nnc(-c3cccnc3)cc12)C1CC1 . Output its inhibition only.
Found: -0.17

Lookup: // Input: CC(C)c1ccc(-c2cc(-c3c[nH]nc3-c3ccccn3)ccn2)cc1 . Output its inhibition only.
Found: 0.95

Lookup: // Input: COc1ccc(-c2nn3ncccc3c2-c2ccnc(Nc3ccc(F)c(F)c3)n2)cc1 . Output its inhibition only.
Found: 9.35

Lookup: // Input: CN(c1ccc(NC(=O)NCCN2CCOCC2)cc1)c1ccnc(Nc2ccc(CS(C)(=O)=O)cc2)n1 . Output its inhibition only.
Found: 5

Lookup: // Input: CCOc1ccc2c(-c3ccnc(Nc4cc(OC)cc(C(F)(F)F)c4)n3)cnn2n1 . Output its inhibition only.
Found: 1.56
